Entries below carry reported IC50 on Pro-cathepsin H (Rattus norvegicus).
Give the quantity in µM, number only.

1. Cc1cccc(C)c1C(=O)OCC(=O)CNC(=O)[C@H](CC(C)C)NC(=O)OCc1ccccc1
7.9

Ask: Fill in the blank: the reported IC50 of CC(=O)N[C@@H](Cc1ccc(O)cc1)C(=O)N[C@@H](Cc1ccccc1)C(=O)N[C@@H](CCCNC(=N)N)C(=O)COC(=O)c1c(C)cccc1C is ____.
Result: 12

###

Biological target: UniProtKB Q9R1T3
Endpoint: IC50 (nM)
Give the quantity in nM, number only.

Ask: Fill in the blank: the reported IC50 of COc1ccc(C(=O)ONC(=O)CNC(=O)[C@H](Cc2ccccc2)NC(=O)OCc2ccccc2)cc1 is ____.
Result: 1500
